B1: library; numbered along this chain (parent)
chain: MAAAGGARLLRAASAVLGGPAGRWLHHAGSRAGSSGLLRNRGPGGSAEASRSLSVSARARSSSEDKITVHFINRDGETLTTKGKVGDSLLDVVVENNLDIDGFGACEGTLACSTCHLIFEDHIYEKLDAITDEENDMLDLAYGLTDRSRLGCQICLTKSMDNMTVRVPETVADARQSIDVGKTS

Variants of: B1
Test: scaled log2 fold change in cell abundance, elesclomol vs control (0 = silent mean, 1 = nonsense mean) (scaled log2 ratio); higher = higher viability under elesclomol (loss of FDX1 cuproptosis function);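 note: variant abundance is its share of total variant reads in each endpoint sample, from next-generation sequencing of the integrated ORF PCR-amplified out of genomic DNA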
Conditions: with ABC1 FDX1 KO; elesclomol 5 nM; glucose 10 mM; 14 days
So basically: scaled log2 fold change at 0.2 or higher? That is rule met. Lower than 0.2? That is rule not met.

As a guide, the following entries are already answered.
Hi, just wondering whether L156F shows scaled log2 fold change of 0.2 or higher.
rule met

Similarly, S56F ?
rule not met

Similarly, G19N ?
rule not met

New cases:
Hi, just wondering whether F103R shows scaled log2 fold change of 0.2 or higher.
rule met

Similarly, S63N ?
rule not met

Similarly, V92Y ?
rule not met

Similarly, L89Y ?
rule met

Similarly, K126I ?
rule not met

Similarly, E133D ?
rule met

Similarly, N73F ?
rule met
